assay: yeast display, Sf9 membrane polyspecificity reagent, FACS + sequencing; frameworks hold sequencing errors
Result Type: polyreactivity (PSR sort gate)

QVQLEESGGCLVQAGGSLRLSCAASGFTFYQNAMGWYRQAPGKERELVAAISSGASTYYADSVKGRFTISRDNAKNTVYLQMNSLKPEDTAVYYCAADRYKPSLRWRRPKMNYWGQGTQVTVSS = high polyreactivity
QVQLVESGAGLVQAGGSLRLSCAASGFTFYRYAMGWYRQAPGKEREFLAAITASGGSTNYADSVKGRFTISRDNAKNTVYLQMNSLKPEDTAVYYCAARQSRDFRYRGFYYWGQGTQVTVSS = high polyreactivity
QVQIVDSGGGLVQAGCSLRLSCAASGFTFFSYAMGWYRQAHWKERELVAAISRSGGRKYYADSVKGRFTISRDNAKNTVYLLMNSLKPEDTAVYYCAAETKTIPFEYWGQGTQVTVSS = high polyreactivity
QVQLVESGGGLVQAGGSLRLSCAASGSTSTRYAMGWYRPAPGKERELVAAISKSGGRTYYADSVKGRFTMSRDNAKNTVYLQMNSLKPEDTAVYYCNTVPGRYRTFDYWGQGTQVTVSS = high polyreactivity
QVQLVESGGGLVQAGGSLRLSCAASGSTFWLYAMGRYRPAPGKERELVASISSRGGSTYYADSVKGRFTISRDNAKNTVYLQMNSLKPEDTAVYYCAAKDIRYDDDYWGQGTQVTVSS = low polyreactivity
QVQLVESGGGLVQAGGSLRLSCAASGRIFKWNAMGWYRQAPGKDRELVAAINLSTRSTYYADSVKGRFTISRDNAKNTVYLEMHSLKTVDTAVYYCAAVTYANYYYDAYYYWGQGSQVTVSS = high polyreactivity
QVQLVESGGGLVQAGGSLRLSCAASGFTFRAYAMGSYRQAPGKERELVAAISTGGGSTYYADSVKGRFTISRDNAKNTVYLQMNSLKPEDTAVYYCNALPQRRYYYWGQGTQVTVSS = high polyreactivity
QVQLVESGGGLVQAGGSLRLSCAASGGTFPYYAMGWYRQAPGKERELVAAISSSGGRTYYADSVKGRFTISRDNAKNTVYLQMNSLKPEDTAVYYCAKDTYGFAANRPAGDGYWGQGTQVTVSS = high polyreactivity

Sure, the documented polyreactivity (PSR sort gate) for QVQLVESGGGLVQAGCSLRLSCAASGIIFALNAMGWYRQAPGKERELVAAISDGDSTHYADSVKGRFTISRDNAKNTVYLQMNSLKPEDTAVYYCAVDNRDLFFYPGGFDYWGQGTQVTVSS is low polyreactivity

Sure, the documented polyreactivity (PSR sort gate) for QVHLVESGGGLVQAGGSLRLSCAASGSIIKRNAMGWYRQAPGKERELVATISSGDGSTRYADSVKGRFTISRDNAKNTVYLQMNSLKPEDSAVYYCAAASAAGYDYWGQGTQVTVSS is low polyreactivity

Sure, the documented polyreactivity (PSR sort gate) for QVQLVESGGGLVQAGGSLRLSCAASGRIFTGYAMGWSRQAPGKERELVASITWRGGSTSYADSVKGRFTISRDNAKNTVYLQMNRLKPEDTAVYYCAAQKWYYPYYWGQGTQVTVSS is high polyreactivity

Sure, the documented polyreactivity (PSR sort gate) for QVQLVVSGGGLVQEGGSLRLSCAAYGNTFFVYAMGGYRQAPGKERELDASITLSGDTTYYADSVKGRFTISRDNAKNPVYLQMNSLKPEDNAVYYCAAKDIRYDDDYWGQGTQVNVSS is low polyreactivity

Sure, the documented polyreactivity (PSR sort gate) for QVQLVESGGGLVQAGGSLRLSCAASGYIFSSYAMGWYRQAPGKERELVAAISWTGGTYYADSVKGRFTISRDNAKNTVYLQMNSLNPEDTAVYYCAVRYKRKGSGYRTNAYDYWGQGTQVTVSS is high polyreactivity

# credit: the nanobody polyreactivity screen of Harvey et al. (2022)
